Each recorded value in this set is attributed to PubChem BioAssay (Tox21).

- assayedSystem: Cytochrome P450 1A2 (Homo sapiens)
- experimentalProtocol: Cytochrome P450 Family 1 Subfamily A Member 2 (CYP1A2) small molecule antagonists: luciferase reporter qHTS assay (AID 1671199); further: nearly all actives have a fitted effect of over 50% in size
- experimentalSetup: P450-Glo CYP1A2 enzyme, luciferin luminescence, 1 h; series mostly up to 53 µM
Inconclusive results are not listed. The source made the active and inactive calls. The call rests on the fitted dose curve; in most records, active means well fitted inhibition curve with a large enough effect in the repeat runs; inconclusive means weak or mixed curves; inactive means no such curve, though single readings can be large or run the other way.
Parameter call: string, one of active, inactive

Examples with answers:
[
  {
    "molecule": "C1CCCCCCCCCCC1",
    "cat": "inactive"
  },
  {
    "molecule": "CCN(CC)C(=O)c1ccc(O)c(OC)c1",
    "cat": "inactive"
  }
]

Which outcome did this test record for the molecule Nc1cc(C(Cl)=C(Cl)Cl)c(S(N)(=O)=O)cc1S(N)(=O)=O ?
inactive

Which outcome did this test record for the molecule C[C@H](O)C(=O)Nc1c(I)c(C(=O)NC(CO)CO)c(I)c(C(=O)NC(CO)CO)c1I ?
inactive

Which outcome did this test record for the molecule C(=C(c1ccccc1)c1ccccc1)c1ccccc1 ?
active

Which outcome did this test record for the molecule CCC(C)(C)C1CCC(OC)CC1 (stereo unspecified) ?
inactive

Which outcome did this test record for the molecule COCc1ccc(COC)cc1 ?
inactive

Which outcome did this test record for the molecule CC(C)c1ccc2oc3nc(N)c(C(=O)O)cc3c(=O)c2c1 ?
active

Which outcome did this test record for the molecule N#CCc1ccccc1[N+](=O)[O-] ?
active
